- Test system: SF-268 CNS
- assay.details: NCI-60 one-dose screen, 48 h (100 = growth as untreated, 0 = no growth, -100 = all killed)
- condition.set: 10 µM unless noted
The panel holds about 83,000 compounds, 20% with a hit somewhere; the sample as a whole holds those more often.
measurement.name: growth (%)
Write the value in % as a bare number.

Would you please look over these solved cases?
compound: COc1cc(CCC[P+](c2ccccc2)(c2ccccc2)c2ccccc2)c(OC)c2c1OCO2
measurement.name: growth
units.label: %
endpoint.result: 13
//
compound: CCC(C)(c1cc(C(C)(C)C)c(O)c(C(C)(C)C)c1)c1cc(C(C)(C)C)c(O)c(C(C)(C)C)c1
measurement.name: growth
units.label: %
endpoint.result: 95.4
//
compound: C/C=C(\C)C(=O)N[C@H]1[C@@H](OC(C)=O)C[C@]2(C)C3CC[C@@]4(C)C(CC[C@@H]4C(C)N(C)C)C3CCC2[C@H]1O (some centres undefined)
measurement.name: growth
units.label: %
endpoint.result: 42.7

The compound CCN1C(=O)N(CC)C2Nn3c(s/c(=C\c4ccc([N+](=O)[O-])cc4)c3=O)=NC21 (centres undefined) showed growth equal to 90
